- MEASURED TARGET: T1, Myo5, Q04439
- T1 sequence (Q04439 1072-1160, looked up): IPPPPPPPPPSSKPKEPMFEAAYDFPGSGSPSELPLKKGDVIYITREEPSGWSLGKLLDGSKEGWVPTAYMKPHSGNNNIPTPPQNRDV
- PROTOCOL DESCRIPTION: SPOT array
- EXPERIMENTAL SETUP: median of control spots 471
Listing: SPOT intensity of selected binders
ATTRIBUTE MEASURED: SPOT intensity

[
  {
    "BINDER": "AAHKTKPSIPPKKVE",
    "OBSERVED": 0
  },
  {
    "BINDER": "TIRRRAPLSLLESHT",
    "OBSERVED": 0
  },
  {
    "BINDER": "VRTRRRPPPPPIPST",
    "OBSERVED": 188
  },
  {
    "BINDER": "HHNRRKPLEVYFKAT",
    "OBSERVED": 1
  },
  {
    "BINDER": "WRPRIVPILPYITRL",
    "OBSERVED": 0
  },
  {
    "BINDER": "RPPRPPPKPLHLRTE",
    "OBSERVED": 33
  },
  {
    "BINDER": "ALKQKKIPPPFKPHL",
    "OBSERVED": 0
  }
]
